Test system: Fibroblast
method: Multiplex assay against human fibroblast
Assay type: toxicity, cell-based
experimental.context: 48 h, 10 µM, compound concentration 10 uM, replicate 1
Decision: Population Mitochondria Different-Phenotype (%) compared against 20%; not below it gives Y, below it gives N.

# compound, tgt, class.label
data = [
    ("C1=N/C2=N/c3ccc(OCCN4CCCC4)c(c3)COC/C=C\\COCc3cccc(c3)C(=C1)N2", "Fibroblast", "Y"),
]

Proceed to the following item.
I'd appreciate it if you could say whether CCC(=O)O[C@]1(C(=O)SCF)[C@H](C)C[C@H]2[C@@H]3C[C@H](F)C4=CC(=O)C=C[C@]4(C)[C@@]3(F)[C@@H](O)C[C@@]21C [FLUTICASONE PROPIONATE] has Population Mitochondria Different-Phenotype (%) at least equal to 20%.
Y

###

Population Hoechst High Intensity Objects (%) reference
Test system: HEK-293T
method: Multiplex assay against HEK293T
Type: toxicity, cell-based
experimental.context: human, 12 h, 10 µM, compound concentration 10 uM, replicate 2
Unit % implied. Number only.

# smiles, measured.result
data = [
    ("CC(C)N1CCC(C)(C)c2cc(C#Cc3ccc(C(=O)O)cc3)ccc21", 44),
    ("Cl.Cl.NC1(c2ccc(-c3nc4ccn5c(=O)[nH]nc5c4cc3-c3ccccc3)cc2)CCC1", 65),
]

Next up:
Let me know recorded Population Hoechst High Intensity Objects (%) for `Nc1ccc(C(=O)Nc2cccc(-c3nc(N4CCOCC4)c4oc5ncccc5c4n3)c2)cn1` , thanks.
8

###

Test system: U2OS
method: Multiplex assay against U2OS
Assay type: toxicity, cell-based
experimental.context: human, 24 h, 1 µM, compound concentration 1 uM, replicate 1
Categorize each record by its Population Membrane Permeable-Phenotype (%) using lowest = under 5%, middle = from 5% up to 10%, highest = 10% and over

Take a look at these entries with their results.
# molecule, class.label
measured = [
    ("CCc1cc2c(cc1CC)CC(NC[C@H](O)c1ccc(O)c3[nH]c(=O)ccc13)C2", "lowest"),
    ("Cc1cn(-c2cc(NC(=O)c3ccc4c(c3)CN(c3cncnc3)C[C@@H]4C)cc(C(F)(F)F)c2)cn1", "middle"),
    ("CCC(=O)O[C@]1(C(=O)SCF)[C@H](C)C[C@H]2[C@@H]3C[C@H](F)C4=CC(=O)C=C[C@]4(C)[C@@]3(F)[C@@H](O)C[C@@]21C [FLUTICASONE PROPIONATE]", "middle"),
    ("CNC(=O)c1nn(C)c2c1C(C)(C)Cc1cnc(Nc3ccc(N4CCN(C)CC4)cc3)nc1-2", "highest"),
    ("CCOc1cc(N2CCC(O)CC2)ccc1Nc1ncc2c(n1)N(C1CCCC1)CCC(=O)N2C", "middle"),
]

Class (by measured Population Membrane Permeable-Phenotype (%)) for `COc1cc2c(NC3CCN(C(C)C)CC3)nc(N3CCC(F)(F)CC3)nc2cc1OCCCN1CCCC1`
lowest

Class (by measured Population Membrane Permeable-Phenotype (%)) for Cc1nc(Cc2cccc(C(F)(F)F)c2)sc1-c1ccc(C(N)=O)nc1 [TP-024n]
lowest

Class (by measured Population Membrane Permeable-Phenotype (%)) for CCn1c(-c2nonc2N)nc2cnc(Oc3cccc(NC(=O)c4ccc(OCCN5CCOCC5)cc4)c3)cc21 [GSK-269962A]
middle

Class (by measured Population Membrane Permeable-Phenotype (%)) for `Nc1nc2c(c(N3CCNCC3)n1)CCC1=C2[C@@H]2CCCC[C@@H]2O1`
middle

Class (by measured Population Membrane Permeable-Phenotype (%)) for `CNC(=O)c1cc(Oc2ccc(NC(=O)Nc3cc(C(C)(C)C)nn3-c3ccc4ncccc4c3)c(F)c2)ccn1`
highest

Class (by measured Population Membrane Permeable-Phenotype (%)) for CN(C)C/C=C/C(=O)Nc1cc2c(Nc3ccc(F)c(Cl)c3)ncnc2cc1O[C@H]1CCOC1.O=C(O)/C=C\C(=O)O.O=C(O)/C=C\C(=O)O [AFATINIB DIMALEATE]
highest
